List of inhibition at 1 µM values.
# targetOrSystem: Hck(h) (Homo sapiens)
# Construct: purchased Upstate Biotechnology (Dundee, UK), KinaseProfiler service
# Sequence (P08631 whole entry): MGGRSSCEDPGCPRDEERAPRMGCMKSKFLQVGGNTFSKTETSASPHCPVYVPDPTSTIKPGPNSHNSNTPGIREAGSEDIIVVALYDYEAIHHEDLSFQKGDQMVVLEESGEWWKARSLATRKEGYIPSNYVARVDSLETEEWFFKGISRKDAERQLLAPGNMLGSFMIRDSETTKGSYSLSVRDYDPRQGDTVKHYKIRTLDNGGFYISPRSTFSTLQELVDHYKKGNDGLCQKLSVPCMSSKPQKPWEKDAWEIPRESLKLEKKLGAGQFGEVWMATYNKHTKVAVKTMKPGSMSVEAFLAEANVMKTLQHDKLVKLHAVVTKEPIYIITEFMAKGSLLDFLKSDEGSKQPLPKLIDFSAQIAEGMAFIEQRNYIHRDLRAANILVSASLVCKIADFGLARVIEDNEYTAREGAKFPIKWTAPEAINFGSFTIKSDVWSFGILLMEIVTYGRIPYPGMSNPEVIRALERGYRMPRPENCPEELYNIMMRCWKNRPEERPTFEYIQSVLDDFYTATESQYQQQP
# assayProtocol: KinaseProfiler assay (Upstate), Hck
# Type: biochemical
# experimentalContext: 1 μM
# Description: Further enzyme assays were conducted at Upstate Biotechnology (Dundee, UK) in the KinaseProfiler™ Assay system. The general protocol is as follows. All kinases are pre-diluted to a 10× working concentration prior to addition into the assay. The composition of the dilution buffer for the kinases is 20 mM MOPS pH 7.0, 1 mM EDTA, 0.1% β-mercaptoethanol, 0.01% Brij-35, 5% glycerol, 1 mg/ml BSA. All substrates are dissolved and diluted to working stocks in de-ionised water. […]
parameter: inhibition at 1 µM (%)

INSERT INTO assay_data (compound, parameter, valuereported) VALUES
  ('C[C@H](Nc1cncc(Cl)n1)c1cccc(NC(=O)c2cccc(C(F)(F)F)c2)c1 [Compound 114]', 'inhibition at 1 µM', 102),
  ('Cc1cccc(C(=O)Nc2cccc([C@H](C)Nc3cncc(-c4ccc(N5CCN(C)CC5)cc4)n3)c2)c1 [Compound 129]', 'inhibition at 1 µM', 99),
  ('C[C@H](Nc1cncc(-c2ccc(N3CCN(C)CC3)cc2)n1)c1cccc(NC(=O)c2cccc(C(F)(F)F)c2)c1 [Compound 148]', 'inhibition at 1 µM', 99),
  ('Cc1cccc(C(=O)Nc2ccc(C)c([C@H](C)Nc3cncc(Cl)n3)c2)c1 [Compound 168]', 'inhibition at 1 µM', 101),
  ('Cc1cccc(C(=O)Nc2cccc([C@H](C)Nc3cncc(-n4ccnc4)n3)c2)c1 [Compound 143]', 'inhibition at 1 µM', 82),
  ('Cc1cccc(C(=O)Nc2cccc([C@H](C)Nc3cncc(C(N)=O)n3)c2)c1 [Compound 133]', 'inhibition at 1 µM', 84),
  ('C[C@H](Nc1cncc(-c2cccc(N3CCOCC3)c2)n1)c1cccc(NC(=O)c2cccc(C(F)(F)F)c2)c1 [Compound 149]', 'inhibition at 1 µM', 100),
  ('Cc1cccc(C(=O)Nc2cccc([C@H](C)Nc3cncc(-c4ccc(S(N)(=O)=O)cc4)n3)c2)c1 [Compound 77]', 'inhibition at 1 µM', 95),
  ('Cc1cccc(C(=O)Nc2cccc([C@H](C)Nc3cncc(-c4cccc(N5CCOCC5)c4)n3)c2)c1 [Compound 147]', 'inhibition at 1 µM', 100);
